endpoint.name: melting point

Cc1c(-c2cccc(O)c2)sc(C=NO)c1-c1ccc(O)cc1 (mixture of isomers) [Example 21] = 240 to 241 °C
Cc1c(-c2ccc(O)cc2)sc(C=O)c1-c1ccc(O)cc1 [Example 15] = 223 to 225 °C
Cc1c(-c2ccc(O)cc2)sc(C=O)c1-c1cccc(O)c1 [Example 1] = 103 to 104 °C

Field: next compound
Reported melting point for Cc1c(-c2ccc(O)c(F)c2)sc(C=O)c1-c1ccc(O)cc1 [Example 8] : what is it?
227 to 229 °C

###

- system.tested: human ERβ (Homo sapiens, UniProt Q92731)
- Construct: M214-Q530 of human ERβ; Flag (C)
- Sequence (Q92731 214-530): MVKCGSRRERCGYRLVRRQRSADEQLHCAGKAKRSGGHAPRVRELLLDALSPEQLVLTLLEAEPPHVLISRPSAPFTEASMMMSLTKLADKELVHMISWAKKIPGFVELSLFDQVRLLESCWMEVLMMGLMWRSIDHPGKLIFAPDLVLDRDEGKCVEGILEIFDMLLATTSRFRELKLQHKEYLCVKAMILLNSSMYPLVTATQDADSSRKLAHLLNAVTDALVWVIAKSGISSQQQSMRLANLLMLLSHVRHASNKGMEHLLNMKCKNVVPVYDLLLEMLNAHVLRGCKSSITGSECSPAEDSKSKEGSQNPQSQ
- assay.remarks: Radioligand binding competition with [3H]-17β-estradiol, ERβ
- measurement.context: human ERβ ligand binding domain extract, read-out: ER-β IC50
endpoint.name: IC50

Solved cases below.
Cc1c(-c2ccc(O)cc2)sc(C#N)c1-c1cccc(O)c1 [Example 17] = 83 nM
Cc1c(-c2ccc(O)cc2)sc(C=NO)c1-c1cccc(O)c1 (mixture of isomers) [Example 16] = 91 nM
Cc1c(-c2ccc(O)c(F)c2)sc(C=O)c1-c1ccc(O)c(Cl)c1 [Example 10] = 4 nM
Cc1c(-c2ccc(O)cc2)sc(C=NO)c1-c1ccc(O)cc1 (mixture of isomers) [Example 18] = 42 nM
Cc1c(-c2ccc(O)c(Cl)c2)sc(C=O)c1-c1ccc(O)cc1 [Example 13] = 27 nM
Cc1cc(O)ccc1-c1c(C=O)sc(-c2ccc(O)c(F)c2)c1C [Example 9] = 12 nM
CON=Cc1sc(-c2ccc(O)cc2C)c(C)c1-c1ccc(O)c(F)c1 [Example 23] = 57 nM

Field: next molecule
Lab note: need IC50 for Cc1c(-c2cccc(O)c2)sc(C#N)c1-c1ccc(O)cc1 [Example 22] on human ERβ (Homo sapiens, UniProt Q92731), anyone have it?
73 nM
